B1: Ribonuclease, P00648 (parent)
chain: MMKMEGIALKKRLSWISVCLLVLVSAAGMLFSTAAKTETSSHKAHTEAQVINTFDGVADYLQTYHKLPDNYITKSEAQALGWVASKGNLADVAPGKSIGGDIFSNREGKLPGKSGRTWREADINYTSGFRNSDRILYSSDWLIYKTTDHYQTFTKIR

variants of: B1; details: Bacillus amyloliquefaciens; pH 5.8; 25 °C; Urea; Fluorescence; MES/Tris 150 mM/150 mM/; NaCl 1 M; structure 1BNI; whole UniProt chain shown
Assay Metric: denaturant midpoint (higher = more stable) (M)

Mutation Label	Result Value
W141Y	4.96
W141F	5.07
H65G	5.12
W141L	4.8
